biological target: H1 A/New Caledonia/20/1999 haemagglutinin, wild-type trimeric protein (Influenza A virus A/New …, UniProt Q6WG00, strain); assay: ELISA
Exercise: for every item that follows, state its recorded ELISA endpoint dilution titre.
Answers are plain numbers, in µg/mL.

binder	unitString	observed
CR6261 germline variant sCDR H1/sCDR H2, soluble IgG (antibody, V domains shown) VH: QVQLVQSGAEVKKPGSSVKVSCKASGGPFRSYAISWVRQAPGQGLEWMGGIIPIFGTTKYAPKFQGRVTITADESTSTAYMELSSLRSEDTAVYYCAKHMGYQLRETMDVWGKGTTVTVSS VL: QSVLTQPPSVSAAPGQKVTISCSGSSSNIGNNYVSWYQQLPGTAPKLLIYDNNKRPSGIPDRFSGSKSGTSATLGITGLQTGDEADYYCGTWDSSLSAYVVFGGGTKLTVL	µg/mL	0.15

Continue with the binder presented below.
Entry CR6261 germline variant sCDR H2/sCDR H3, soluble IgG (antibody, V domains shown) VH: QVQLVQSGAEVKKPGSSVKVSCKASGGTFSSYAISWVRQAPGQGLEWMGGIIPIFGTTKYAPKFQGRVTITADESTSTAYMELSSLRSEDTAVYYCAKHMGYQVRETMDVWGKGTTVTVSS VL: QSVLTQPPSVSAAPGQKVTISCSGSSSNIGNNYVSWYQQLPGTAPKLLIYDNNKRPSGIPDRFSGSKSGTSATLGITGLQTGDEADYYCGTWDSSLSAYVVFGGGTKLTVL — recorded ELISA endpoint dilution titre = 0.15
